target: T1, Recombinant TNFα containing an N-terminal 13-aa ybbR tag (human, UniProt P01375 77-233, biotin at the ybbR tag in the ELISA assays); assay: FA, FITC-peptide + TNFα titration
T1 construct: Expressed in E. coli; Same construct used unlabelled (FA) and biotinylated on NeutrAvidin (ELISA); also called tumor necrosis factor-alpha; human TNFα; not shown: N-terminal 13-aa ybbR tag
T1 sequence (P01375 77-233): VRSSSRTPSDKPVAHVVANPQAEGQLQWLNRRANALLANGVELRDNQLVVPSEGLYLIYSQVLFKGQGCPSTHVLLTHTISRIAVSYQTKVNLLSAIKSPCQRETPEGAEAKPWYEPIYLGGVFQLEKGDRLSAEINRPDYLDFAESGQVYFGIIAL
pKd: −log10 of the molar value. Positions of bridges follow the written chain, without caps; N, C: chain ends. Non-standard residues stand in square brackets, D forms with d. Primed or numbered codes have the meaning given here. *: point of attachment. FITC = O=C1OC2(c3ccc(O)cc3Oc3cc(O)ccc32)c2ccc(NC(=S)*)cc21; trimesoyl″ = benzene-1,3,5-tricarbonyl scaffold; Phe(4-Cl) = N[C@@H](Cc1ccc(Cl)cc1)C(=O)O; Nle = CCCC[C@H](N)C(=O)O; Dap = NC[C@H](N)C(=O)O
Met means recorded pKd is 6 or above; Not met means it is below 6.

| binder | assigned.label |
| --- | --- |
| [Nle][Phe(4-Cl)][dS]KY[dH]G[dK]H[Dap]K(FITC)-NH2 (linker N-4-10 via trimesoyl″) [C1-40] | Not met |
| [Nle]Q[dS]KY[dF]G[dK]H[Dap]K(FITC)-NH2 (linker N-4-10 via trimesoyl″) [C1-28] | Not met |
| [Nle]Y[dS]KY[dY]G[dK]H[Dap]K(FITC)-NH2 (linker N-4-10 via trimesoyl″) [C1-29] | Not met |
| [Nle]H[dS]KY[dF]G[dK]H[Dap]K(FITC)-NH2 (linker N-4-10 via trimesoyl″) [C1-26] | Not met |
| [Nle]Y[dS]KW[dH]G[dK]H[Dap]K(FITC)-NH2 (linker N-4-10 via trimesoyl″) [C1-35] | Met |
